Numbers sourced from the MegaScale stability set (Tsuboyama et al. 2023).

B1: 2M8U (parent)
chain: TKAQVIEAFKVFDRDGNGYVTVDYLRKVLNELGDMMPADEIEEMIYEADPQNSGYVQYETFVGMLFL

# Variants of: B1
# procedure_summary: folding stability dG (cDNA display proteolysis); higher = more stable
# condition_details: PBS, room temperature
result_type: folding stability dG (kJ/mol)
Supply the numeric figure in kJ/mol, leaving out any unit text.

Indicate the recorded folding stability dG value for this variant: V56D
9.98

Indicate the recorded folding stability dG value for this variant: N52C
14.3

Indicate the recorded folding stability dG value for this variant: L67K
14.9

Indicate the recorded folding stability dG value for this variant: G63L
14.1

Indicate the recorded folding stability dG value for this variant: I41C
12

Indicate the recorded folding stability dG value for this variant: L67V
13.7

Indicate the recorded folding stability dG value for this variant: N52R
14.9

Indicate the recorded folding stability dG value for this variant: M36Y
14.9

Indicate the recorded folding stability dG value for this variant: V56I
15.4

Indicate the recorded folding stability dG value for this variant: Y55K
13.6

Indicate the recorded folding stability dG value for this variant: I41P
8.27
